Recorded measurements of IC50, one per entry
biological target: full-length human PRMT1 isoform 1 (GST-tagged) (Homo sapiens, UniProt Q99873); assay: PRMT1 Biochemical Assay (3H-SAM Flashplate, peptide substrate); conditions: single experiment or average of multiple experiments
Sequence (Q99873 with tags, fused parts or gaps): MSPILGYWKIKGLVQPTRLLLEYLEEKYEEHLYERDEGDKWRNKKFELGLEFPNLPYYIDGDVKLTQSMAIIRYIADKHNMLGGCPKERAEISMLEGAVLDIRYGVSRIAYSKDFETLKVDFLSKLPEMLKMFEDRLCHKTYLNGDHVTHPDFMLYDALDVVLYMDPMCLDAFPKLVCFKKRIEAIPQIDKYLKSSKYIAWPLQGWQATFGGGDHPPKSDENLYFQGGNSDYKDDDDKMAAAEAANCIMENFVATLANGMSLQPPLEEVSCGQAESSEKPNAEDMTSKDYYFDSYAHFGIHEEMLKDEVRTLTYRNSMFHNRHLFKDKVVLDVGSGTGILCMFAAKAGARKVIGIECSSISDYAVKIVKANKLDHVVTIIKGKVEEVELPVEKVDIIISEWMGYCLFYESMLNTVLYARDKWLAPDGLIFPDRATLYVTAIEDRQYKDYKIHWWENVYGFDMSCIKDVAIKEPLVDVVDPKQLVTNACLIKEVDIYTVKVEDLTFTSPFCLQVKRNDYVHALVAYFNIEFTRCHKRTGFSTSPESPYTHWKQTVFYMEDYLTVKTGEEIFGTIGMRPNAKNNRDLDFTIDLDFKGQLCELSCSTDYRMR
Please reply with the bare figure in nM and do not write the unit itself.

Provide measured IC50 value, entry: CNCCN(C)Cc1c[nH]nc1[C@H]1CC[C@H](O)C2(CCCCC2)C1 (racemic)
19.8

Provide one value: measured IC50 of CNCCN(C)Cc1c[nH]nc1[C@H]1CC[C@@H](C(=O)N(C)CC(C)C)CC1
14.1

Recall and state the measured IC50 for CNCCN(C)Cc1c[nH]nc1[C@H]1CC[C@H](C(C)C)CC1 .
4.9

The record that follows has no IC50 shown yet.
Let me know recorded IC50 for CNCCN(C)Cc1c[nH]nc1C1CCC2(CC1)C(=O)NC(=O)N2C (stereo not shown) , thanks.
25.6

###

target: full-length human PRMT8 isoform 1 (Homo sapiens, UniProt Q9NR22); assay: PRMT8 Biochemical Assay (3H-SAM Flashplate, peptide substrate); conditions: single experiment or average of multiple experiments; read-out: Biochemical IC50 PRMT8
Sequence (Q9NR22 whole entry, canonical isoform): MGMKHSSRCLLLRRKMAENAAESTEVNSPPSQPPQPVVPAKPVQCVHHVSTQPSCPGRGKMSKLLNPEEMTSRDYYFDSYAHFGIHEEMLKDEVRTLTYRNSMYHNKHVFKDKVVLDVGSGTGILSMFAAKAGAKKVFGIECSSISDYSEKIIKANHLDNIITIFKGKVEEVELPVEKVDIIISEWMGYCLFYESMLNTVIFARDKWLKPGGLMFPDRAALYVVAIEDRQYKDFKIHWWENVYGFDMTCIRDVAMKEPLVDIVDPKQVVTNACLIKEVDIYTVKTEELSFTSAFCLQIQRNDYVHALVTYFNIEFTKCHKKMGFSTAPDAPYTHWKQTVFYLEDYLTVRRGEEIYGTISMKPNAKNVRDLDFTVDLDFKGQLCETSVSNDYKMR
Returns: string. Value is 1 if measured IC50 is below 30 nM, and -1 if it is greater than or equal to it.

Please state whether IC50 is below 30 nM for CNCCN(C)Cc1c[nH]nc1/C=C/c1ccc(C(F)(F)F)cc1
-1

# check: IC50 < 30 nM for CNCCN(C)Cc1c[nH]nc1C1CCC(C)(C)C(COCC(C)C)C1 (centres unmarked)
1

For this molecule, is IC50 lower than 30 nM? CNCCN(C)Cc1c[nH]nc1[C@@H]1CCC(C)(C)[C@@H](C(=O)NCCOC)C1
-1

I wonder whether CNCCN(C)Cc1c[nH]nc1[C@H]1CC[C@]2(CCN(Cc3cc(F)cc(F)c3)C2=O)CC1 has IC50 below 30 nM. Can you tell?
1

###

target: full-length human PRMT8 isoform 1 (Homo sapiens, UniProt Q9NR22); test: PRMT8 Biochemical Assay (3H-SAM Flashplate, peptide substrate); conditions: single experiment or average of multiple experiments; read-out: Biochemical IC50 PRMT8
measurement.type: log10 IC50 (log10 of the value in nM)
// units: nM (pre-log); metric: IC50; scale: log10

Example results:
Tell me log10 IC50 of CNCCN(C)Cc1c[nH]nc1C1CCC(C)(C)[C@H](C(=O)NCCOC)C1 (stereo partly drawn) when tested on full-length human PRMT8 isoform 1 (Homo sapiens, UniProt Q9NR22).
2.26

Report log10 IC50 on full-length human PRMT8 isoform 1 (Homo sapiens, UniProt Q9NR22) for this entry: CNCCN(C)Cc1c[nH]nc1C1CCC2(CCCC2)OC1 (stereo not drawn)
1.58

Param request: log10 IC50 | system full-length human PRMT8 isoform 1 (Homo sapiens, UniProt Q9NR22) | item CNCCN(C)Cc1c[nH]nc1C1CCC(=O)CC1
1.55

Give full-length human PRMT8 isoform 1 (Homo sapiens, UniProt Q9NR22) log10 IC50 for the following compound: CNCCN(C)Cc1c[nH]nc1[C@H]1CC[C@@H](N(CCC(C)C)C(=O)CCCOC)CC1
1.92

Recall the reported log10 IC50 of CCOC1CC2(CCC(c3n[nH]cc3CN(C)CCNC)CC2)CC1OCC (stereo not drawn) on full-length human PRMT8 isoform 1 (Homo sapiens, UniProt Q9NR22) and write it down.
1.45

Continuing:
Specify log10 IC50 for CNCCN(C)Cc1c[nH]nc1C1CCC2(CC1)CC2 , system full-length human PRMT8 isoform 1 (Homo sapiens, UniProt Q9NR22).
1.89

Please respond with reported log10 IC50 (system full-length human PRMT8 isoform 1 (Homo sapiens, UniProt Q9NR22)) for CCC(=O)N(CCOc1ccccc1)[C@H]1CC[C@@H](c2n[nH]cc2CN(C)CCNC)CC1 .
1.11

Please respond with reported log10 IC50 (system full-length human PRMT8 isoform 1 (Homo sapiens, UniProt Q9NR22)) for CNCCN(C)Cc1c[nH]nc1C1CCC(F)(F)CC1 .
1.25

Jot down log10 IC50 (full-length human PRMT8 isoform 1 (Homo sapiens, UniProt Q9NR22)) of CNCCN(C)Cc1c[nH]nc1C1CCC(C)(C)[C@H](OCC2CCOCC2)C1 (stereo partly drawn) .
1.35

Please look at CNCCN(C)Cc1c[nH]nc1C1CCC(=O)N(CCc2ccccc2)C1 (stereo not drawn) and tell me its recorded log10 IC50 on full-length human PRMT8 isoform 1 (Homo sapiens, UniProt Q9NR22).
1.63

Write down the reported log10 IC50 (system: full-length human PRMT8 isoform 1 (Homo sapiens, UniProt Q9NR22)) of CN(CCN)Cc1c[nH]nc1CCc1ccc(F)cc1
2.45

Tell me log10 IC50 of CNCCN(C)Cc1c[nH]nc1C1CCCC(COCCC(O)CO)C1 (stereo not drawn) when tested on full-length human PRMT8 isoform 1 (Homo sapiens, UniProt Q9NR22).
2.08

Specify log10 IC50 for CNCCN(C)Cc1cnn(C)c1C1CCC2(CCCC2)CC1 , system full-length human PRMT8 isoform 1 (Homo sapiens, UniProt Q9NR22).
0.86
